- Tested on: JeKo-1
- Assay explanation: Antiproliferative activity against human JeKo1 cells incubated for 72 hrs by CellTiter-Glo luminescence assay
- Format: functional
- Assay context: JeKo-1, 72 h
Measured endpoint: GI50

Record smiles: CS(=O)(=O)CCNCc1ccc(-c2ccc3ncnc(Nc4ccc(OCc5cccc(F)c5)c(Cl)c4)c3c2)o1
GI50: 5 µM

Record smiles: COCCN1CCOc2c1cnn1c(-c3ccc4cccc(NCC5CCNCC5)c4n3)nnc21
GI50: 7.3 µM

Record smiles: CS(=O)(=O)N1CCN(Cc2cc3nc(-c4cccc5[nH]ncc45)nc(N4CCOCC4)c3s2)CC1
GI50: 5 µM

In the following, a different compound is considered.
// query GI50 value for entry CC(=O)c1c(C)c2cnc(Nc3ccc(N4CCNCC4)cn3)nc2n(C2CCCC2)c1=O 30 µM

---

- Target: Serine/threonine-protein kinase pim-3 (Homo sapiens)
- Assay explanation: Inhibition of N-terminal 6-His tagged human recombinant PIM3 using PIM tide (ARKRRRHPSGPPTA) as substrate incubated for 1 hr by fluorescence based assay
For each entry below, report its pIC50 value.
Give bare numbers, as −log10 of the molar value.

Record smiles: COCCN1CCOc2c1cnn1c(-c3ccc4cccc(NCC5CCNCC5)c4n3)nnc21
Target: Serine/threonine-protein kinase pim-3 (Homo sapiens)
Measured endpoint: pIC50
Measured value: 7.15
--
Record smiles: CCN1CCOc2c1cnn1c(-c3ccc4cccc(NCC5CCNCC5)c4n3)nnc21
Target: Serine/threonine-protein kinase pim-3 (Homo sapiens)
Measured endpoint: pIC50
Measured value: 7.24
--
Record smiles: CCCN1CCOc2c1cnn1c(-c3ccc4cccc(NCC5CCNCC5)c4n3)nnc21
Target: Serine/threonine-protein kinase pim-3 (Homo sapiens)
Measured endpoint: pIC50
Measured value: 7.22
--
Record smiles: CN1CCOc2c1cnn1c(-c3ccc4cccc(NCC5CCOCC5)c4n3)nnc21
Target: Serine/threonine-protein kinase pim-3 (Homo sapiens)
Measured endpoint: pIC50
Measured value: 6.40
--
Record smiles: CN1CCOc2c1cnn1c(-c3ccc4ccc(Cl)c(NCC5(F)CCNCC5)c4n3)nnc21
Target: Serine/threonine-protein kinase pim-3 (Homo sapiens)
Measured endpoint: pIC50
Measured value: 8.22
--
Record smiles: CN1CCOc2c1cnn1c(-c3ccc4cccc(NC(=O)C5CCNCC5)c4n3)nnc21
Target: Serine/threonine-protein kinase pim-3 (Homo sapiens)
Measured endpoint: pIC50
Measured value: 6.88

Would you be so kind as to report pIC50 for each listed record?
1. CN1CCC(Nc2cccc3ccc(-c4nnc5c6c(cnn45)N(C)CCO6)nc23)CC1
2. CN1CCOc2c1cnn1c(-c3ccc4cccc(NCC5CCNCC5)c4c3)nnc21
3. CN1CCOc2c1cnn1c(-c3ccc4ccnc(NCC5(F)CCNCC5)c4c3)nnc21

[7.40, 7.24, 7.59]

---

- Target: Serine/threonine-protein kinase pim-1 (Homo sapiens, UniProt P11309)
- Assay explanation: Inhibition of His tagged human recombinant PIM1 using PIM tide (ARKRRRHPSGPPTA) as substrate incubated for 1 hr by fluorescence based assay
Measured endpoint: IC50 (nM)
Give bare numbers, in nM.

Example results:
Record smiles: CN1CCOc2c1cnn1c(-c3ccc4cccc(NC5CCOCC5)c4n3)nnc21
Measured value: 25
--
Record smiles: CN1CCC(Nc2cccc3ccc(-c4nnc5c6c(cnn45)N(C)CCO6)nc23)CC1
Measured value: 7
--
Record smiles: CN1CCOc2c1cnn1c(-c3ccc4cccc(N5CCNCC5)c4n3)nnc21
Measured value: 200
--
Record smiles: CCN1CCOc2c1cnn1c(-c3ccc4cccc(NCC5CCNCC5)c4n3)nnc21
Measured value: 13

In the following, a different molecule is considered.
Given CN1CCOc2c1cnn1c(-c3cccc(C(=O)NCC4CCNCC4)n3)nnc21 , state its recorded IC50. 7100

---

- Target: Serine/threonine-protein kinase pim-1 (Homo sapiens)
- Assay explanation: Inhibition of PIM1 in human NCI-H1299 cells assessed as reduction in BAD phosphorylation at Ser-112 residue incubated for 4 hrs by ELISA
- Assay type: cell-based
- Assay context: read-out: EC50
Kindly note that classification relies on EC50 with these boundaries: lower level: < 200 nM; middle level: ≥ 200 nM and < 800 nM; upper level: ≥ 800 nM

Record smiles: COCCN1CCOc2c1cnn1c(-c3ccc4cccc(NCC5CCNCC5)c4n3)nnc21
Target: Serine/threonine-protein kinase pim-1 (Homo sapiens)
Label class: middle level
--
Record smiles: CN1CCOc2c1cnn1c(-c3ccc4cccc(N5CCC(N)CC5)c4n3)nnc21
Target: Serine/threonine-protein kinase pim-1 (Homo sapiens)
Label class: upper level
--
Record smiles: CN1CCOc2c1cnn1c(-c3ccc4cc(F)cc(NCC5(F)CCNCC5)c4n3)nnc21
Target: Serine/threonine-protein kinase pim-1 (Homo sapiens)
Label class: middle level

Sort CN1CCOc2c1cnn1c(-c3ccc4ccc(Cl)c(NCC5(F)CCNCC5)c4n3)nnc21 into one of the categories. lower level

// next record Cc1cc(NCC2(F)CCNCC2)c2nc(-c3nnc4c5c(cnn34)N(C)CCO5)ccc2c1 upper level

Another molecule to check: CN1CCOc2c1cnn1c(-c3ccc4c(F)c(F)cc(NCC5(F)CCNCC5)c4n3)nnc21 lower level

And for CN1CCC(Nc2cccc3ccc(-c4nnc5c6c(cnn45)N(C)CCO6)nc23)CC1 ? middle level

---

- Target: Serine/threonine-protein kinase pim-1 (Homo sapiens, UniProt P11309)
- Assay explanation: Inhibition of His tagged human recombinant PIM1 using PIM tide (ARKRRRHPSGPPTA) as substrate incubated for 1 hr by fluorescence based assay
pIC50: −log10 of the molar value.
Measured endpoint: pIC50

Use the examples below as a reference point.
Record smiles: CN1CCOc2c1cnn1c(-c3cccc(NCC4CCNCC4)c3)nnc21
Measured endpoint: pIC50
Measured value: < 5.00

Record smiles: CN1CCOc2c1cnn1c(C(=O)Nc3ccccc3NCC3CCNCC3)nnc21
Measured endpoint: pIC50
Measured value: < 5.00

In the following, a different compound is considered.
GET /values?readout=pIC50&system=Serine/threonine-protein kinase pim-1 (Homo sapiens, UniProt P11309)&item= CN1CCOc2c1cnn1c(C(=O)Nc3ccccc3NC3CCNCC3)nnc21 < 5.00

Every entry's value here was drawn from ChEMBL document CHEMBL4340512.
